# Experiment notes: qHTS for Inhibitors of human tyrosyl-DNA phosphodiesterase 1 (TDP1): qHTS in cells in absence of CPT; further: nearly all actives have a fitted effect of over 55% in size
# Settings: DT40 Tdp1-/- hTDP1 cells, no CPT, ATP luminescence, 48 h
The campaign covered roughly 420,000 compounds. About 64,000 (15%) were called active. Another 27% or so got no clear call; they are omitted. The call rests on the fitted dose curve; in most records, active means well fitted inhibition curve with a large enough effect; inconclusive means small, poorly fitted or top-dose-only effect; inactive means flat fitted curve, though single readings scatter. Only a sample is shown.
Allowed answers: true for active, false for inactive

Please review the entries below; each comes with its answer.
O=C(Cn1nc(C(=O)O)c2ccccc2c1=O)Nc1ccc(F)cc1 : false
COc1ccc(C(=O)Nc2cccc(NC(=O)c3ccc(OC)cc3OC)n2)c(OC)c1 : true
C[C@@H]1NC(=O)c2cc([N+](=O)[O-])cc(F)c2NCCC[C@@H](C(N)=O)NC(=O)[C@H](CC(N)=O)NC1=O : false
CC(C)c1ccc(C(=O)NCCCc2ccccc2)cc1 : false
CCOc1ccc(CCNC(=O)c2ccc3c(c2)sc2nc(-c4ccc(F)cc4)cn23)cc1OCC : true
CCOc1ccc(CCNC(=O)Nc2ccccc2)cc1OCC : false
COc1ccc(CCNC(=O)c2ccc3c(c2)sc2nc(-c4ccc(C)cc4)cn23)cc1OC : true
COc1ccc(C(=O)Nc2nncs2)c(OC)c1 : false

Please share the test call associated with `CCCCCCCCn1c2c(c(=N)c3c1CCC3)CCCC2` .
true

// return assay outcome for `COc1ccc(C(=O)NC2=NCCS2)c(OC)c1`
false

How did this test come out for COc1cc(C(=O)N2CCN(C3CCC(C)CC3)CC2)cc(OC)c1OC (stereo unspecified) ?
false

###

# Experiment notes: qHTS for Inhibitors of human tyrosyl-DNA phosphodiesterase 1 (TDP1): qHTS in cells in absence of CPT; further: nearly all actives have a fitted effect of over 55% in size
# Settings: DT40 Tdp1-/- hTDP1 cells, no CPT, ATP luminescence, 48 h
Screen size: about 420,000 compounds; about 64,000 (15%) were called active. Roughly 27% stayed inconclusive and do not appear here. Calls come from the whole dose curve; as a rule, active = well fitted inhibition curve with a large enough effect; inconclusive = small, poorly fitted or top-dose-only effect; inactive = flat fitted curve, though single readings scatter. Only a sample is shown.
// allowed return values: active, inactive

O=P(c1cccs1)(c1cccs1)c1cccs1 : inactive

Kindly provide the recorded test outcome for the following compound: `O=C(Oc1ccc(-c2nc(-c3ccccn3)no2)cc1)c1ccccc1`
active

What was the test verdict on `CCCc1nn(C)c2c(=O)[nH]c(-c3cc(S(N)(=O)=O)ccc3OCC)nc12` ?
inactive

###

# Experiment notes: qHTS for Inhibitors of human tyrosyl-DNA phosphodiesterase 1 (TDP1): qHTS in cells in absence of CPT; further: nearly all actives have a fitted effect of over 55% in size
# Settings: DT40 Tdp1-/- hTDP1 cells, no CPT, ATP luminescence, 48 h
# Method: Human tyrosyl-DNA phosphodiesterase 1 (TDP1) is a novel repair gene, and we propose to use it as a new target for anticancer drug development. […] For the primary screen, Tdp1-/-;hTDP1 cells will be exposed to small molecules in the presence or absence of CPT, and their growth kinetics will be evaluated after 48 hours by measuring ATP activity. […] The hit compounds will then be evaluated in the presence or absence of CPT using Tdp1-/- cells. […]
In all, about 420,000 compounds went through this assay and about 64,000 (15%) were called active. About 27% were inconclusive and are not listed. Calls come from the whole dose curve; as a rule, active = well fitted inhibition curve with a large enough effect; inconclusive = small, poorly fitted or top-dose-only effect; inactive = flat fitted curve, though single readings scatter. These entries were drawn from the full list.
Hi! Could you answer with just one of these? True = active, False = inactive

Cc1cccc(OCC(=O)NCC(=O)N/N=C/c2ccc(N(C)C)cc2)c1 : False
COc1ccc(-c2cn3cccnc3n2)cc1 : False

Query: recorded result category for COc1cc(C2C(C(=O)c3cccs3)=C(O)C(=O)N2CCN2CCOCC2)ccc1OCCC(C)C (configuration not stated) in this test
False

Test call for this compound, please: CCOC(=O)C1CCC(CN(Cc2ccc(OC)cc2)S(=O)(=O)c2ccc(F)c(C(=O)Nc3cc(C)ccc3C)c2)CC1 (configuration not stated)
False
